Assay: antimalarial activity against Dd2 strain (AID 2302)
Details: P. falciparum Dd2 in RBCs, LDH growth readout, 72 h; at 2 µM; hits give high values
Label y when growth inhibition is at or above 90%; otherwise label n.

{"compound": "c1ccc2c(c1)CN(CC1CCOCC1)CC1(CCN(Cc3c[nH]c4cnccc34)CC1)O2", "group": "n"}
{"compound": "CS(=O)(=O)c1ccc(-c2cnc(N)c(-c3ccc(O)cc3)c2)cc1", "group": "y"}
{"compound": "COc1ccc(N2CCN(CCCCNC(=O)c3ccc(NC(=O)c4ccc(Cl)cc4)cc3)CC2)c(OC)c1", "group": "n"}
{"compound": "CN1CCN(CCCN(Cc2csc(-c3ccc(CNCc4ccccc4)cc3)n2)S(=O)(=O)c2ccc(F)cc2)CC1", "group": "n"}
{"compound": "CC1CN(CC(O)Cn2c3ccc(Br)cc3c3cc(Br)ccc32)CC(C)O1 (centres undefined)", "group": "y"}
{"compound": "Cc1cc(CN2CC[C@H](NC(=O)c3ccc(Cl)c(Cl)c3)C2)ccc1OCCN1CCNCC1", "group": "n"}
{"compound": "Cc1cccc(Nc2nc(N)c3ccccc3n2)c1", "group": "n"}
{"compound": "COc1ccc(C2CC(c3cccs3)=NN2C(=O)CNc2ccccc2F)cc1OC (centres undefined)", "group": "n"}
{"compound": "Cc1ccc2nc(-c3cc(-c4ccc(OCc5ccccc5)cc4)cnc3N)[nH]c2c1", "group": "n"}
{"compound": "CCCCCCNC(=O)C(N)CCCC(N)C(=O)NCCCCCC (centres undefined)", "group": "n"}
{"compound": "CCc1ccc2c(c1O)CCN(C)C2Cc1ccccc1Cl (centres undefined)", "group": "y"}
{"compound": "CCOC(=O)c1ccc(OCCOc2ccccc2)cc1", "group": "n"}
{"compound": "CCc1cc(=O)[nH]c(-n2nc(C)cc2NC(=O)CC(c2ccccc2)c2ccccc2)n1", "group": "n"}
{"compound": "CC(C)[C@H](NC(=O)c1ccc(O)c(-c2ccc(Cl)c(Cl)c2)c1)C(=O)NCCN1CCCCC1", "group": "y"}
{"compound": "COc1ccc(CC(=O)Nc2ccc(Nc3nc(C)cc(N4CCCC4)n3)cc2)cc1", "group": "n"}
{"compound": "COc1ccc(-c2cccc(NC(=O)c3ccc(C#N)cc3)c2)cc1CN1CCCC1", "group": "n"}
{"compound": "NC(=O)c1cnc2cc(-c3ccncc3)cc(Nc3ccc(NC(=O)C4CCCCC4)cc3)c2c1", "group": "y"}
{"compound": "CC(=O)c1cccc(Nc2nc3c(C#N)c(OCc4cc(Cl)cc(Cl)c4)ccc3[nH]2)c1", "group": "n"}
{"compound": "CCCc1cc(OC)c(CC2c3cc(O)c(Cl)cc3CCN2C)cc1OC (centres undefined)", "group": "y"}
{"compound": "CC(Nc1ccnc2cc(Cl)ccc12)c1ccc(S(N)(=O)=O)cc1 (centres undefined)", "group": "n"}
{"compound": "CN(C)c1ccc(NC2=NC(C)(C)N=C(N)N2)cc1", "group": "n"}
{"compound": "CCCCCCc1cc2cc(-c3nc(-c4ccc(OC)cc4)cs3)c(=O)oc2cc1O", "group": "y"}
{"compound": "CN1CCN(c2ccc(-c3cccc(NC(=O)c4ccc5ccccc5c4)c3)nn2)CC1", "group": "n"}
{"compound": "CCN(CC)C(=NCCCCCCN=C(NC(N)=NCc1ccc(Cl)cc1Cl)N(CC)CC)NC(N)=NCc1ccc(Cl)cc1Cl", "group": "y"}
{"compound": "Cc1cccc2[nH]c(-c3cccc(-c4cccc(NC(=O)CNc5ccc(C(N)=O)cc5)c4)c3)nc12", "group": "n"}
{"compound": "Cc1ccnc2nc(C(=O)Nc3cc(Cl)ccc3N3CCOCC3)nn12", "group": "n"}
{"compound": "Cn1c(=N)n(CC(=O)OCc2ccc(OCc3ccccc3)cc2)c2ccccc21", "group": "n"}
{"compound": "Cc1ccc(C(C)C)c(Oc2ccc3nc(N)nc(N)c3c2)c1", "group": "n"}
{"compound": "CC(=O)Nc1ccccc1OCc1cc2cc(C(=O)N3CCC(N4C(=O)OCc5ccccc54)CC3)ccc2o1", "group": "y"}
{"compound": "CC(C)Oc1ccc(C=CC(=O)Nc2noc3ccccc23)cc1", "group": "y"}
{"compound": "COc1cccc(CCNCc2ccc(-c3cccc(CNC4CCCC4)c3)cc2)c1", "group": "n"}
{"compound": "CN1CCN(c2ccc(Nc3c(C(N)=O)cnc4cc(-c5ccoc5)ccc34)cc2C(F)(F)F)CC1", "group": "y"}
{"compound": "CCc1cc2c(=O)c(-c3nc(C)cs3)c(N)oc2c(CN2CCCCC2)c1O", "group": "y"}
{"compound": "O=S(=O)(c1ccc(OCc2ccc(Cl)cc2)cc1)c1cc2c(cc1OCc1ccccc1)CCN(C1CCC1)CC2", "group": "n"}
{"compound": "COc1ccc2nccc([C@@H](O)CN3CCC(NCc4ccc5c(c4)N(C)C(=O)CO5)CC3)c2c1", "group": "y"}
{"compound": "CCNc1cc(C(=O)N[C@@H](Cc2ccccc2)[C@H](O)CNCCC(C)c2ccccc2)cc(N2CCCC2=O)c1 (some centres undefined)", "group": "y"}

----------
Assay: antimalarial activity against Dd2 strain (AID 2302)
Settings: P. falciparum Dd2 in RBCs, LDH growth readout, 72 h; at 2 µM; hits give high values
growth inhibition of 70% or higher: True. Under 70%: False.

{"compound": "CCOC(=O)CNCC(=O)c1ccc(OCc2ccccc2)cc1", "group": "False"}
{"compound": "Cc1ccc(Cl)c2sc(N3CCN(C(=O)c4ccc([N+](=O)[O-])o4)CC3)nc12", "group": "True"}
{"compound": "Cc1sc(CNCCCNc2cc(=O)c3ccccc3[nH]2)c(I)c1C", "group": "False"}
{"compound": "NC(=O)c1ccc(NC(=O)CN(Cc2ccc(Cl)cc2)S(=O)(=O)c2ccccc2)cc1", "group": "True"}
{"compound": "CCCC(C)c1cnc2nc(N)nc(N)c2c1C (stereo not given)", "group": "False"}
{"compound": "CCn1c(-c2nonc2N)nc2cnc(Oc3cccc(NC(=O)c4ccc(OCCN5CCCC5)cc4)c3)cc21", "group": "False"}
{"compound": "O=C(NCc1ccccc1)c1ccc(C(=O)NCC2CNCCO2)cc1 (stereo not given)", "group": "False"}
{"compound": "Cn1cnc(CCNC(=O)c2cccc(-c3csc(-c4nc5ccccc5[nH]4)c3)c2)c1", "group": "False"}
{"compound": "Cc1ccc2nc(/N=C(\\N)NC(=O)NC3CCCCC3)nc(C)c2c1", "group": "True"}
{"compound": "CN(C(=O)c1snnc1-c1ccccc1)C1CCN(CCCCCNC(=O)/C=C/c2ccc(Cl)c(Cl)c2)CC1", "group": "False"}
{"compound": "Nc1c(Cl)cc(C(O)CNCCCCCCOCCc2ccc(O)cc2)cc1Cl (stereo not given)", "group": "True"}
{"compound": "CCCCN1CCCN(Cc2cccc(NC(=O)c3ccc(-c4ccccc4)cc3)c2)CC1", "group": "False"}
{"compound": "CS(=O)(=O)c1ccc(CNCc2cccc(-c3ccc(-c4nc5ccc(C(F)(F)F)cc5[nH]4)cc3)c2)cc1", "group": "True"}
{"compound": "CC(CCCCOCCc1ccccc1)NCC(O)c1cc(Cl)c(N)c(Cl)c1 (stereo not given)", "group": "True"}
{"compound": "Cc1cccc2[nH]c(-c3ccc(-c4ccc(CN5CCCC(N)C5)cc4)s3)nc12 (stereo not given)", "group": "True"}
{"compound": "CCn1ccc2c(N3CCCS3(=O)=O)cc(C(=O)N[C@@H](Cc3ccccc3)[C@H](O)CNC(C)(C)c3cccc(OC)c3)cc21", "group": "True"}
{"compound": "O=[N+]([O-])c1cccc(C=NNc2nc(Nc3ccccc3)nc(Nc3ccccc3)n2)c1", "group": "False"}
{"compound": "COc1ccc(C(O)CNC(C)CCc2ccc(F)cc2)cc1C(F)(F)F (stereo not given)", "group": "True"}
{"compound": "COCCN1CCC(C(=O)NCC(C)(C)c2nc(-c3ccc(Br)c(O)c3)c(-c3ccncc3)[nH]2)CC1", "group": "False"}

----------
Test: antimalarial activity against Dd2 strain (AID 2302)
Conditions: P. falciparum Dd2 in RBCs, LDH growth readout, 72 h; at 2 µM
Calls of active or inactive are those of the source.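 The calls were made as follows: active = growth inhibition above 50% at the single 2 µM test dose, taken to imply half-maximal potency below 2 µM; inactive = the rest.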
Classes used: active, inactive

{"compound": "CC(C)[C@@H](C(=O)NCc1cccc(C(F)(F)F)c1)N1C(=O)CCC1C(=O)Nc1ccc([N+](=O)[O-])cc1 (stereo not given in full)", "group": "inactive"}
{"compound": "Cc1cc(N)c2cc(NC(=O)c3cc(C(F)(F)F)cc(C(F)(F)F)c3)ccc2n1", "group": "active"}
{"compound": "CN(C)c1ccc(C(c2ccc(N(C)C)cc2)c2cc([N+](=O)[O-])ccc2Cl)cc1", "group": "active"}
{"compound": "Cc1cc(=O)oc2c1ccc1oc(C(O)c3ccc(Cl)cc3)c(C)c12 (stereo not given)", "group": "active"}
{"compound": "Cn1cncc1C(=O)Nc1cccc(-c2cccc(-c3nc4ccc(C(F)(F)F)cc4[nH]3)c2)c1", "group": "active"}
{"compound": "COc1ccc2nc(-c3ccccc3)cc(NN=Cc3ccncc3)c2c1", "group": "inactive"}
{"compound": "CC(O)c1cccc(-c2ccc(Nc3ccnc4cc(-c5nccs5)ccc34)cc2)c1 (stereo not given)", "group": "active"}
{"compound": "Cc1nc(N2CCC(C)CC2)c2c3c(sc2n1)CCCC3", "group": "inactive"}
{"compound": "Cc1ccc(Nc2nccc(Nc3ccc4c(C)[nH]nc4c3)n2)cc1F", "group": "inactive"}
{"compound": "c1ccc(CNc2cc(-c3ccccn3)nc(-c3ccccn3)n2)cc1", "group": "active"}
